FYI, the data here is from patent US20220363718A1.

- targetUnderTest: TSLP (as used in the human PBMC assay) (UniProt Q969D9 29-159)
- experimentalDetails: cell-based or functional assay
*1 amine or outer side, *2 acyl side, *3 side chain or, on linkers, in order; H or OH if unused. Bridges are numbered along the chain shown (N, C = ends). Where no end group is shown, it is not given here. [ ]: non-standard residue; d: D form. TATA = O=C(CC[*:1])N1CN(C(=O)CC[*:2])CN(C(=O)CC[*:3])C1; tBuAla = CC(C)(C)C[C@H](N)C(=O)O
readout: CCL17 % Inhibition @ 10 µM, 666 pM TSLP (%)

Below, each entry is followed by its recorded CCL17 % Inhibition @ 10 µM, 666 pM TSLP result.
| binder | readout | unitAbbreviation | recordedNumber |
| --- | --- | --- | --- |
| ACDWHWEYDCWLSCEPETGQA (linker 2-10-14 via TATA) [Example 221] | CCL17 % Inhibition @ 10 µM, 666 pM TSLP | % | -10 |
| ACQWLEDCWRGFCADGDML (linker 2-8-13 via TATA) [Example 42] | CCL17 % Inhibition @ 10 µM, 666 pM TSLP | % | 47 |

(A) ACRDLDPWTCSSWWLCANV (linker 2-10-16 via TATA) [Example 186]
(B) SPPCVWLDDCWRGFCA (linker 4-10-15 via TATA) [Example 73]
(C) Ac-CQW[tBuAla]EDCWRGFC (linker 1-7-12 via TATA; not fully specified (C-terminus); printed as Ac-CQW[tBuA]EDCWRGFC) [Example 44]
(D) CQWLEDCWRGXC (not fully specified; Ac-CQWLEDCWRG[Nal2]C; 3 Cys cyclised with TATA) [Example 50]
Hey, quick one: sort these by CCL17 % Inhibition @ 10 µM, 666 pM TSLP, largest value first please. Could you list the labels in the order requested?
C, D, A, B
(C: 52%, D: 33%, A: -1%, B: -11%)
